Recorded CC50 for the following molecules
Tested on: TZM
experiment-description: Cytotoxicity against human TZM-GFP cells incubated for 72 hrs by XTT assay
Type: cell-based
setup-conditions: tzm, 72 h

Some molecules with recorded CC50:
[[record]]
compound = "Cc1[nH]c2ccccc2c1CC(=O)N[C@@H](Cc1ccccc1)C(=O)NC12CC3CC(CC(C3)C1)C2"
readout = "CC50"
reading = "> 100 µM"

[[record]]
compound = "O=C(Cc1c[nH]c2ccccc12)N[C@@H](Cc1ccccc1)C(=O)Nc1ccccc1"
readout = "CC50"
reading = "96 µM"

[[record]]
compound = "CN(C(=O)[C@H](Cc1ccccc1)NC(=O)CCc1c[nH]c2ccccc12)c1ccccc1"
readout = "CC50"
reading = "> 50 µM"

[[record]]
compound = "Cc1c(CC(=O)N[C@@H](Cc2ccccc2)C(=O)N(C)c2cccc(Cl)c2)c2ccccc2n1C(C)C"
readout = "CC50"
reading = "14 µM"

[[record]]
compound = "CCN(C(=O)[C@H](Cc1ccccc1)NC(=O)Cc1c(C)n(C(C)C)c2ccccc12)c1ccccc1"
readout = "CC50"
reading = "23 µM"


CC50 for TZM with input `CC(C)n1cc(CC(=O)N[C@@H](Cc2ccccc2)C(=O)N(C)c2ccc(Cl)cc2)c2ccccc21` equals 10 µM

CC50 for TZM with input `CCn1c(C)c(CC(=O)N[C@@H](Cc2ccccc2)C(=O)N(C)c2ccc(Cl)cc2)c2ccccc21` equals 27 µM

CC50 for TZM with input `Cc1cc(NC(=O)[C@H](Cc2ccccc2)NC(=O)Cc2c(C)[nH]c3ccccc23)n[nH]1` equals > 100 µM

----------
Recorded ΔTm for the following molecules
Tested on: Human immunodeficiency virus 1
experiment-description: Binding affinity to covalently-crosslinked hexameric HIV1 capsid protein A14C/E45C/W184A/M185A mutant expressed in Escherichia coli BL21(DE3)RIL assessed as change in melting temperature at 20 uM incubated for 30 mins by thermal shift dye based fluorescence analysis
Give the value in °C but do not write °C after it.

The measured ΔTm associated with `CCn1c(C)c(CC(=O)N[C@@H](Cc2ccccc2)C(=O)N(C)c2ccc(Cl)cc2)c2ccccc21` reads 11.9

The measured ΔTm associated with `CCn1cc(CC(=O)N[C@@H](Cc2ccccc2)C(=O)N(C)c2ccc(C)cc2)c2ccccc21` reads 8.6

The measured ΔTm associated with `CN(C(=O)[C@H](Cc1ccccc1)NC(=O)Cc1c[nH]c2ccccc12)c1cccc(C(F)(F)F)c1` reads 2.8

----------
experiment-description: Metabolic stability at phase 1 in mouse liver microsomes assessed as half life at 1 uM by LC-MS/MS analysis
Format: ADME, Microsome
setup-conditions: liver microsomes
Recorded half-life at 1 µM for the following compounds
Give the value in s but do not write s after it.

Some compounds with recorded half-life at 1 µM:
[[record]]
compound = "Cc1[nH]c2ccccc2c1CC(=O)N[C@@H](Cc1ccccc1)C(=O)N(C)c1ccccc1"
reading = 36

[[record]]
compound = "CCn1cc(CC(=O)N[C@@H](Cc2ccccc2)C(=O)N(C)c2ccccc2)c2ccccc21"
reading = 30

[[record]]
compound = "Cc1c(CC(=O)N[C@@H](Cc2ccccc2)C(=O)N(C)c2ccc(F)cc2)c2ccccc2n1C(C)C"
reading = 30


The measured half-life at 1 µM associated with `CCn1c(C)c(CC(=O)N[C@@H](Cc2ccccc2)C(=O)N(C)c2ccccc2)c2ccccc21` reads 30

The measured half-life at 1 µM associated with `CCn1c(C)c(CC(=O)N[C@@H](Cc2ccccc2)C(=O)N(C)c2ccc(F)cc2)c2ccccc21` reads 30

----------
Recorded ΔTm for the following compounds
Tested on: Human immunodeficiency virus 1
experiment-description: Binding affinity to covalently-crosslinked hexameric HIV1 capsid protein A14C/E45C/W184A/M185A mutant expressed in Escherichia coli BL21(DE3)RIL assessed as change in melting temperature at 20 uM incubated for 30 mins by thermal shift dye based fluorescence analysis
Give the value in °C but do not write °C after it.

Some compounds with recorded ΔTm:
[[record]]
compound = "Cc1cc(NC(=O)[C@H](Cc2ccccc2)NC(=O)Cc2c[nH]c3ccccc23)n[nH]1"
test_target = "Human immunodeficiency virus 1"
reading = 0

[[record]]
compound = "Cc1[nH]c2ccccc2c1CC(=O)N[C@@H](Cc1ccccc1)C(=O)N1CCC[C@H]1C(=O)Nc1ccccc1"
test_target = "Human immunodeficiency virus 1"
reading = 0.6

[[record]]
compound = "CCN(C(=O)[C@H](Cc1ccccc1)NC(=O)Cc1c(C)[nH]c2ccccc12)c1ccccc1"
test_target = "Human immunodeficiency virus 1"
reading = 8.5


Shift focus to the following entry.
The measured ΔTm associated with `CCN(C(=O)[C@H](Cc1ccccc1)NC(=O)Cc1c(C)n(CC)c2ccccc12)c1ccccc1` reads 10

----------
Tested on: TZM
experiment-description: Cytotoxicity against human TZM-GFP cells incubated for 72 hrs by XTT assay
Type: cell-based
setup-conditions: tzm, 72 h
readout: CC50 (µM)
Give the value in µM but do not write µM after it.

Some compounds with recorded CC50:
[[record]]
compound = "Cc1c(CC(=O)N[C@@H](Cc2ccccc2)C(=O)N(C)c2ccccc2)c2ccccc2n1C(C)C"
test_target = "TZM"
output_unit = "µM"
reading = 16

[[record]]
compound = "Cc1[nH]c2ccccc2c1CC(=O)N[C@@H](Cc1ccccc1)C(=O)Nc1ccccc1"
test_target = "TZM"
output_unit = "µM"
reading = 40

[[record]]
compound = "CCn1cc(CC(=O)N[C@@H](Cc2ccccc2)C(=O)N(C)c2ccc(Cl)cc2)c2ccccc21"
test_target = "TZM"
output_unit = "µM"
reading = 16


The measured CC50 associated with `Cc1[nH]c2ccccc2c1CC(=O)N[C@@H](Cc1ccccc1)C(=O)N(C)c1cccc(C(F)(F)F)c1` reads 18

The measured CC50 associated with `CC(C)n1cc(CC(=O)N[C@@H](Cc2ccccc2)C(=O)N(C)c2ccccc2)c2ccccc21` reads 21

The measured CC50 associated with `CCn1c(C)c(CC(=O)N[C@@H](Cc2ccccc2)C(=O)N(C)c2ccc(C)cc2)c2ccccc21` reads 18

The measured CC50 associated with `CCn1cc(CC(=O)N[C@@H](Cc2ccccc2)C(=O)N(C)c2ccc(F)cc2)c2ccccc21` reads 18

The measured CC50 associated with `Cc1[nH]c2ccccc2c1CC(=O)N[C@@H](Cc1ccccc1)C(=O)Nc1ccc2ncsc2c1` reads 49

The measured CC50 associated with `Cc1c(CC(=O)N[C@@H](Cc2ccccc2)C(=O)N(C)c2ccc(Cl)cc2)c2ccccc2n1C(C)C` reads 14

----------
System: Human immunodeficiency virus 1
experiment-description: Binding affinity to covalently-crosslinked hexameric HIV1 capsid protein A14C/E45C/W184A/M185A mutant expressed in Escherichia coli BL21(DE3)RIL assessed as change in melting temperature at 20 uM incubated for 30 mins by thermal shift dye based fluorescence analysis
readout: ΔTm

Some compounds with recorded ΔTm:
[[record]]
compound = "Cc1[nH]c2ccccc2c1CC(=O)N[C@@H](Cc1ccccc1)C(=O)N(C)c1cccnn1"
reading = "3.2 °C"

[[record]]
compound = "Cc1c(CC(=O)N[C@@H](Cc2ccccc2)C(=O)N(C)c2cccc(Cl)c2)c2ccccc2n1C(C)C"
reading = "5.5 °C"

[[record]]
compound = "CCn1cc(CC(=O)N[C@@H](Cc2ccccc2)C(=O)N(C)c2cccc(F)c2)c2ccccc21"
reading = "5.9 °C"


Shift focus to the following entry.
ΔTm for Human immunodeficiency virus 1 with input `Cc1cc(NC(=O)[C@H](Cc2ccccc2)NC(=O)Cc2c(C)[nH]c3ccccc23)n[nH]1` equals 0 °C

----------
Tested on: Human immunodeficiency virus 1
experiment-description: Binding affinity to covalently-crosslinked hexameric HIV1 capsid protein A14C/E45C/W184A/M185A mutant expressed in Escherichia coli BL21(DE3)RIL assessed as change in melting temperature at 20 uM incubated for 30 mins by thermal shift dye based fluorescence analysis
Please note: ΔTm exactly at 7 °C is Criterion not met. Only values below 7 °C get Criterion met.

[[record]]
compound = "CCn1c(C)c(CC(=O)N[C@@H](Cc2ccccc2)C(=O)N(C)c2cccc(Cl)c2)c2ccccc21"
test_target = "Human immunodeficiency virus 1"
group = "Criterion not met"

[[record]]
compound = "COc1cccc(N(C)C(=O)[C@H](Cc2ccccc2)NC(=O)Cc2c[nH]c3ccccc23)c1"
test_target = "Human immunodeficiency virus 1"
group = "Criterion met"

[[record]]
compound = "Cc1c(CC(=O)N[C@@H](Cc2ccccc2)C(=O)N(C)c2ccc(F)cc2)c2ccccc2n1C(C)C"
test_target = "Human immunodeficiency virus 1"
group = "Criterion not met"

[[record]]
compound = "Cc1[nH]c2ccccc2c1CC(=O)N[C@@H](Cc1ccccc1)C(=O)N(C)c1cccnc1"
test_target = "Human immunodeficiency virus 1"
group = "Criterion met"

[[record]]
compound = "Cc1c(CC(=O)N[C@@H](Cc2ccccc2)C(=O)N(C)c2ccc(Cl)cc2)c2ccccc2n1C(C)C"
test_target = "Human immunodeficiency virus 1"
group = "Criterion not met"


Exercise: Report whether reported ΔTm is lower than 7 °C (strictly) for `CN(C(=O)[C@H](NC(=O)Cc1c[nH]c2ccccc12)c1ccccc1)c1ccccc1`
Solution: Criterion met

Exercise: Report whether reported ΔTm is lower than 7 °C (strictly) for `Cc1[nH]c2ccccc2c1CC(=O)N[C@@H](Cc1ccccc1)C(=O)NC12CC3CC(CC(C3)C1)C2`
Solution: Criterion met

Exercise: Report whether reported ΔTm is lower than 7 °C (strictly) for `Cc1[nH]c2ccccc2c1CC(=O)N[C@@H](Cc1ccccc1)C(=O)N(C)c1ccccc1`
Solution: Criterion not met

Exercise: Report whether reported ΔTm is lower than 7 °C (strictly) for `Cc1[nH]c2ccccc2c1CC(=O)N[C@@H](Cc1ccccc1)C(=O)Nc1ccc2ncsc2c1`
Solution: Criterion met

Exercise: Report whether reported ΔTm is lower than 7 °C (strictly) for `CN(C(=O)[C@H](Cc1ccccc1)NC(=O)Cc1c[nH]c2ccccc12)c1ccc(Cl)nc1`
Solution: Criterion met
